B1: EHEE_rd4_0726 (parent)
chain: DIEITTNGEEDAKRVIKELQKRNLEYHIEVHGNQWVIKVR

Variants of: B1
assaySummary: folding stability dG (cDNA display proteolysis); higher = more stable
conditionLabel: PBS, room temperature
experimentalReadout: folding stability dG (kcal/mol)
Answers are plain numbers, in kcal/mol.

// solved cases for folding stability dG follow
inputsequence=DIEITTNGEEDAKRVIKELQKRNLEYHIEVHGNQWMIKVR experimentalreadout="folding stability dG" readoutvalue=1.37
inputsequence=DIEITTNGEEDAKRVIKELQKRNLEYCIEVHGNQWVIKVR experimentalreadout="folding stability dG" readoutvalue=2.6
inputsequence=DIEITTNGEEDAWRVIKELQKRNLEYHIEVHGNQWVIKVR experimentalreadout="folding stability dG" readoutvalue=3
inputsequence=DIEITTNGEEDAKRVIKELQKRNLEYHIEVHGNRWVIKVR experimentalreadout="folding stability dG" readoutvalue=2.59
inputsequence=DIEITSNGEEDAKRVIKELQKRNLEYHIEVHGNQWVIKVR experimentalreadout="folding stability dG" readoutvalue=1.47
inputsequence=DIEITTNGEEDAKRVIKELQKRNLEYHIEVHGNQWFIKVR experimentalreadout="folding stability dG" readoutvalue=1.85
inputsequence=DFEITTNGEEDAKRVIKELQKRNLEYHIEVHGNQWVIKVR experimentalreadout="folding stability dG" readoutvalue=3.22
inputsequence=DIEITTMGEEDAKRVIKELQKRNLEYHIEVHGNQWVIKVR experimentalreadout="folding stability dG" readoutvalue=2.54
inputsequence=DIEITTNGEEDAKRVIKELQKRHLEYHIEVHGNQWVIKVR experimentalreadout="folding stability dG" readoutvalue=2.4
inputsequence=DKEITTNGEEDAKRVIKELQKRNLEYHIEVHGNQWVIKVR experimentalreadout="folding stability dG" readoutvalue=1.58

Working through the 8 variants below one at a time, give folding stability dG for each.
1. DIEITTNGEEDAKDVIKELQKRNLEYHIEVHGNQWVIKVR
2. DIEITTNGEEDAKRVIKELQVRNLEYHIEVHGNQWVIKVR
3. DIEITTNGEEDAKRVIKELQKRNLEYQIEVHGNQWVIKVR
4. TIEITTNGEEDAKRVIKELQKRNLEYHIEVHGNQWVIKVR
5. DIEITTNGEEDAKRVIKELCKRNLEYHIEVHGNQWVIKVR
6. DIEITTNGEEDAKRVKKELQKRNLEYHIEVHGNQWVIKVR
7. DIEITTNGGEDAKRVIKELQKRNLEYHIEVHGNQWVIKVR
8. DIEITTNGEEDAKRVIKELQKRNLEYRIEVHGNQWVIKVR

[1.59, 1.91, 2.45, 2.63, 1.98, 0.043, 1.76, 2.59]

Dear reader, for each entry below, please note its folding stability dG.
1. DIEITTNGEEDAKRVIKELQKRNLEYHIEVHGNQWVIKVY
2. DIEITTNGEEDADRVIKELQKRNLEYHIEVHGNQWVIKVR
3. DIEITTNGEEDAKRVIKELQKRLLEYHIEVHGNQWVIKVR
4. DIEITTNGEEDAKRVISELQKRNLEYHIEVHGNQWVIKVR

1. 2.57
2. 1.72
3. 1.77
4. 2.31

Please go through the list and note folding stability dG for each variant.
1. DIEITTNGEEDAKRVHKELQKRNLEYHIEVHGNQWVIKVR
2. DIEITFNGEEDAKRVIKELQKRNLEYHIEVHGNQWVIKVR
3. DIEITTNGEEDAKQVIKELQKRNLEYHIEVHGNQWVIKVR
4. DIEITTNGEEDAKRVIKDLQKRNLEYHIEVHGNQWVIKVR

1. -0.379
2. 2.32
3. 2
4. 1.84
